# test summary: protein stability index of a GFP-peptide fusion (GPS, HEK-293T) (PSI 1-6); higher = more stable;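 further: 24-mer peptide tiles fused after GFP, lentivirally expressed, FACS-sorted into six equal bins by GFP/DsRed ratio, decoded by Illumina sequencing, PSI is the read-weighted mean bin number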
# protocol conditions: treatment: DMSO; c terminus: a fixed tail appended
Where protein stability index equals or exceeds 3, the correct label is Fulfilled; where it does not, the label is Not fulfilled.

INSERT INTO measurements (ordered_residues, discrete_label) VALUES
  ('RLWRLFQTLDVNRDGGLCVNDLAV [SLC25A25]', 'Not fulfilled'),
  ('EQERRERREQAAAAPFPSPAPASP [TFE3]', 'Fulfilled'),
  ('HLGCAVYQDMIYAVGGRDDTTELS [KLHL20]', 'Fulfilled'),
  ('AAWKGRVLLPETQKRQQLSEDTLT [C22orf31]', 'Fulfilled');

Now for another entry.
Given the entry FDKLALRFHGRLLFLKDVLGDEIC [KCTD13] , answer whether its protein stability index meets or surpasses 3.
Not fulfilled
